Would you mind telling me the reported pIC50 of each entry?
system: Human immunodeficiency virus type 1 integrase (Human immunodeficiency virus 1)
experimentalDetails: Inhibitory concentration of compound against 3'-processing of HIV-1 integrase in experiment 1
Answers are plain numbers, as −log10 of the molar value.

These solved cases illustrate the format of a correct answer.
- molecule: "O=[N+]([O-])c1cccc(/C=N/CCN2CCN(CC/N=C/c3cccc([N+](=O)[O-])c3O)C2c2cccc([N+](=O)[O-])c2O)c1O"
  pIC50: 4.28
- molecule: "O=C(/C=C/c1ccc(O)c(O)c1)O[C@H]1[C@H](O)C[C@](O)(C(=O)O)C[C@H]1OC(=O)/C=C/c1ccc(O)c(O)c1"
  pIC50: 5.89
- molecule: "CCCCCc1cc2cc(O)cc(Oc3c(O)cc(O)c(C(=O)O)c3CCCCC)c2c(=O)o1"
  pIC50: 4.28
- molecule: "O=C(Nc1ccc(C(=O)O)c(O)c1)c1ccc(C(=O)Nc2ccc(O)c(C(=O)O)c2)cc1"
  pIC50: 4.63
- molecule: "Nc1cc(C(=O)O)c(-c2cc(O)c(N)cc2C(=O)O)cc1O"
  pIC50: 3.67

Give me pIC50 for each of these molecules, listed below.
1. COc1cc(C)c2c(c1C)OC(=O)c1c(C)c(Cl)c(O)c(C=O)c1O2
2. O=C(O)c1cc(/N=N\c2ccccc2C(=O)O)ccc1O
3. O=C(O)c1ccccc1C(c1cc(Br)c(O)c(Br)c1)c1ccc(Br)c(O)c1Br (stereo not given)
4. COc1cc(C(=O)O)c2c(c1C)OC(=O)c1c(C)cc(O)c(C=O)c1O2 [PSOROMIC ACID]
5. CCN(CC)c1ccc(Cc2ccc(N(C)C)c(Cl)c2)cc1

Marked response:
1. 5.66
2. 3.94
3. 4.36
4. 4.77
5. 4.21

---

system: Human immunodeficiency virus type 2 integrase (Human immunodeficiency virus 2)
Sequence (P89582 whole entry): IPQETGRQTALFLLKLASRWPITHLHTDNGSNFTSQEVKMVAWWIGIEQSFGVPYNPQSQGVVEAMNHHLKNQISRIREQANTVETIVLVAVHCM
readoutLabel: IC50 (µM)
Numbers only, in µM.

Kindly note the recorded IC50 for `Cc1c2cc(O)c(=O)cc-2oc2cc(O)c(O)cc12` , which is 1.5

---

Kindly supply the reported pIC50 values for the records listed here.
system: Human immunodeficiency virus type 1 integrase (Human immunodeficiency virus 1, UniProt Q7ZJM1)
Sequence (Q7ZJM1 whole entry): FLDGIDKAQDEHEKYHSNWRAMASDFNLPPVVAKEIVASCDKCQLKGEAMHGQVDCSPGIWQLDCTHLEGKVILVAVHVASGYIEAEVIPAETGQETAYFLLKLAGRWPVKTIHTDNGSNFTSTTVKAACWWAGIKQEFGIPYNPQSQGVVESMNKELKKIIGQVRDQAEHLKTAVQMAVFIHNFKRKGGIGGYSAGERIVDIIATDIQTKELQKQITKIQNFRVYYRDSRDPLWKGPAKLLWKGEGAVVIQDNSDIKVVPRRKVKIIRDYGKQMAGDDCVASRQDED
experimentalDetails: Inhibitory concentration of compound against disintegration (reversal of strand transfer)of HIV-1 integrase
One number for each entry, as −log10 of the molar value.

Please give pIC50 for each item listed below.
1. CC(=O)C1=C(O)C=C2Oc3c(C(C)=O)c(O)c(C)c(O)c3[C@@]2(C)C1=O [(+)-USNIC ACID]
2. CCCCCC(=O)Cc1cc(O)cc2c1C(=O)Oc1cc(O)c(C(=O)O)c(CCCCC)c1O2

Marked response:
[3.88, 4.49]

Below is a list of compounds. For each, state its recorded pIC50.
1. COc1cc(C)c2c(c1C)OC(=O)c1c(C)c(Cl)c(O)c(C=O)c1O2
2. Cc1cc(O)c(C=O)c2c1C(=O)Oc1c(C)c(O)c(C(=O)O)c(C)c1O2

Marked response:
[4.89, 4.47]

---

system: Human immunodeficiency virus type 1 integrase (Human immunodeficiency virus 1, UniProt Q7ZJM1)
experimentalDetails: Inhibitory concentration of compound against strand transfer of HIV-1 integrase in experiment 1
Okay, here is how we bin by IC50: 0 = under 10 µM, 1 = from 10 µM up to 50 µM, 2 = 50 µM and over

- molecule: "Cc1c2cc(O)c(=O)cc-2oc2cc(O)c(O)cc12"
  groupLabel: 0
- molecule: "Cc1ncc(COP(=O)(O)O)c(C2NC(C(=O)O)CS2)c1O (stereo unspecified)"
  groupLabel: 2
- molecule: "CCN(CC)c1ccc(Cc2ccc(N(C)C)c(Cl)c2)cc1"
  groupLabel: 1
- molecule: "C[C@@](O)(/C=C/[C@H]1CC=CC(=O)O1)[C@@H](C[C@@H](O)C=CC=C/C=C/CO)OP(=O)(O)O"
  groupLabel: 1
- molecule: "COc1cc(C(=O)O)c2c(c1C)OC(=O)c1c(C)cc(O)c(C=O)c1O2"
  groupLabel: 0

Exam item: Could you place O=C1C(O)=C(c2ccccc2)C12CSC1(CS2)C(=O)C(O)=C1c1ccccc1 (stereo unspecified) in its proper category? Many thanks.
Marked response: 2

Exam item: Sort COc1cc(C)c2c(c1C=O)Oc1c(c(C)c(O)c3c1C(O)OC3=O)OC2=O (stereo unspecified) into one of the categories.
Marked response: 0

Exam item: Record `O=C(O)c1cc(/N=N\c2ccccc2C(=O)O)ccc1O` — which class?
Marked response: 2

Exam item: Could you tell me which band `O=[N+]([O-])c1cccc(/C=N/CCN2CCN(CC/N=C/c3cccc([N+](=O)[O-])c3O)C2c2cccc([N+](=O)[O-])c2O)c1O` belongs to?
Marked response: 1
